Data provenance is patent EP4793288A1.

# key: entry, value: Kd
# study_target: T1, Recombinant HLA-G antigen (human, UniProt P17693 25-308, limits assumed)
# T1 construct: also called recombinant HLA-G protein
# test_summary: BLI (Octet), antibody on anti-human IgG Fc capture biosensor, HLA-G antigen 100 to 1.56 nM
The figure you give is taken to be in nM; do not add the unit.

Solved cases (4 shown):
Name the recorded Kd for 2F1_LS#39 (antibody, human IgG1, kappa, V domains shown) VH: EVQLVESGGGLVQPGGSLRLSCAASGFTFSSYAMSWVRQAPGKGLEWVSRISGSGGYIYYADSVKGRFTISRDNSKNTLYLQMNSLRAEDTAVYYCAKEGTSSYRGWMDVWGQGTLVTVSS VL: DIQMTQSPSSLSASVGDRVTITCRASQSISRYLNWYQQKPGKAPKLLIYATSNLHSGVPSRFSGSGSGTDFTLTISSLQPEDFATYYCQQSYTSPWTFGQGTKVEIKR .
0.567

Name the recorded Kd for Positive control antibody (antibody, human IgG1, kappa, V domains shown) VH: QLQLQESGPGLVKPSETLSLTCTVSGGSISSSSTYWSWIRQPPGKGLEWIGGIAYSGSTYYNPSLKSRVTISVDTSKNQFSLKLSSVTAADTAVYYCARGVRRAVPEDYWGQGTLVTVSS VL: EIVLTQSPGTLSLSPGERATLSCQASQAVSSNYLAWYQQKPGQAPRLLIYGASSRATGIPDRFSGSGSGTDFTLTISRLEPEDFAVYYCQQVVHSPYTFGGGTKVEIKR .
1.36

Name the recorded Kd for 2F1_LS#24 (antibody, human IgG1, kappa, V domains shown) VH: EVQLVESGGGLVQPGGSLRLSCAASGFTFSSYAMSWVRQAPGKGLEWVSRISGSGGYIYYADSVKGRFTISRDNSKNTLYLQMNSLRAEDTAVYYCAKEGTSSYRGWMDVWGQGTLVTVSS VL: DIQMTQSPSSLSASVGDRVTITCRASQSISNWLNWYQQKPGKAPKLLIYAASRLQSGVPSRFSGSGSGTDFTLTISSLQPEDFATYYCQQSYTSPWTFGQGTKVEIKR .
0.553

Name the recorded Kd for 2F1_LS#17 (antibody, human IgG1, kappa, V domains shown) VH: EVQLVESGGGLVQPGGSLRLSCAASGFTFSSYAMSWVRQAPGKGLEWVSRISGSGGYIYYADSVKGRFTISRDNSKNTLYLQMNSLRAEDTAVYYCAKEGTSSYRGWMDVWGQGTLVTVSS VL: DIQMTQSPSSLSASVGDRVTITCRASQSISNYLNWYQQKPGKAPKLLIYAASRLQSDVPSRFSGSGSGTDFTLTISSLQPEDFATYYCQQSYSTPWTFGQGTKVEIKR .
0.689

In the following, a different binder is considered.
Name the recorded Kd for 2F1_LS#26 (antibody, human IgG1, kappa, V domains shown) VH: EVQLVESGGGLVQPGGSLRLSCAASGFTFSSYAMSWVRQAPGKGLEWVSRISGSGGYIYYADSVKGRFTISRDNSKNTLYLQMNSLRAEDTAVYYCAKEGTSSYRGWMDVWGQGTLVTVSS VL: DIQMTQSPSSLSASVGDRVTITCRASQSISNYLNWYQQKPGKAPKLLIYATSRLQSGVPSRFSGSGSGTDFTLTISSLQPEDFATYYCQQSYSFPWTFGQGTKVEIKR .
0.698
